B1: EEHEE_rd4_0763 (parent)
chain: LTVHVGNVTYHFDNPEQAEEWAKRMAKKYQGQIHVKDGQFRIE

- Variants of: B1
- ASSAY_NAME: folding stability dG (cDNA display proteolysis); higher = more stable
- SETTINGS: PBS, room temperature
EXPERIMENTAL_ENDPOINT: folding stability dG (kcal/mol)
Number only, in kcal/mol; omit the unit.

Past entries and their recorded results:
{"VARIANT_NOTATION": "R24T", "UNIT_NAME": "kcal/mol", "folding stability dG": 1.45}
{"VARIANT_NOTATION": "F12A", "UNIT_NAME": "kcal/mol", "folding stability dG": 0.274}

So, "E20V" ? Its folding stability dG was 1.35

So, "D13P" ? Its folding stability dG was 1.45

So, "N7C" ? Its folding stability dG was 2.65

So, "E16Q" ? Its folding stability dG was 1.69

So, "Q17D" ? Its folding stability dG was 1.8

So, "W21Y" ? Its folding stability dG was 1.5

So, "Q32C" ? Its folding stability dG was 1.93

So, "Q32I" ? Its folding stability dG was 2.03
